ASSAY METHOD TEXT: M. tuberculosis H37Rv growth inhibitors, H37Rv strain (AID 1626);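 further: bacteria incubated seven days before Alamar blue readout; 0% = bacteria only wells and 100% = bacteria with antibiotic wells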
EXPERIMENTAL PARAMETERS: active compounds read high, concentration not given here
Screen size: about 220,000 compounds; about 2,000 (0.91%) were called active. About 2% were inconclusive and are not listed. Not all results are given here. Measured potencies and affinities stand elsewhere.
QUANTITY KIND: inhibition (%)
Write down the numeric answer in % and omit the unit.

compound="Clc1ccccc1CNC1CN2CCC1CC2 (stereo unspecified)" value_reported=5.7
compound=CCCc1cc(=O)oc2cc(OCC(=O)OC)cc(OCC(=O)OC)c12 value_reported=6.75
compound=CC(C)(CN1CCCCC1)NS(=O)(=O)c1ccc(Cl)cc1 value_reported=3.88
compound="OC(CNCCc1ccccc1)COc1ccc(OCC(O)CNCCc2ccccc2)cc1 (stereo unspecified)" value_reported=-6.51
compound=CC(=O)c1cccc(NC(=O)c2ccc(N(Cc3ccc(C)cc3)S(C)(=O)=O)cc2)c1 value_reported=1.69
compound=CC(C)N1C(=O)c2ccc(C(=O)O)cc2C1=O value_reported=2.62

For the compound shown here, Cc1ccc(/C=N/OC(=O)c2nn(C)cc2Cl)cc1 , give the reported inhibition.
11.9

For the compound shown here, CCCCCCc1ccc(OCC(=O)O)cc1OCC(=O)O , give the reported inhibition.
-14.7

For the compound shown here, CC[C@H]1CC2CN3CCc4c([nH]c5ccccc45)C(C(=O)OC)(C2)C13 (stereo partly specified) , give the reported inhibition.
0.73

For the compound shown here, CCOC(=O)C(C)Sc1nnc(NC(=O)c2cccc([N+](=O)[O-])c2C)s1 (stereo unspecified) , give the reported inhibition.
27

For the compound shown here, COc1ccc(CCNCC(O)COc2cccc(Br)c2)cc1 (stereo unspecified) , give the reported inhibition.
-1.52
